Source: ChEMBL document CHEMBL1949531

target_of_assay: Albumin (Homo sapiens)
Sequence (P02768 whole entry): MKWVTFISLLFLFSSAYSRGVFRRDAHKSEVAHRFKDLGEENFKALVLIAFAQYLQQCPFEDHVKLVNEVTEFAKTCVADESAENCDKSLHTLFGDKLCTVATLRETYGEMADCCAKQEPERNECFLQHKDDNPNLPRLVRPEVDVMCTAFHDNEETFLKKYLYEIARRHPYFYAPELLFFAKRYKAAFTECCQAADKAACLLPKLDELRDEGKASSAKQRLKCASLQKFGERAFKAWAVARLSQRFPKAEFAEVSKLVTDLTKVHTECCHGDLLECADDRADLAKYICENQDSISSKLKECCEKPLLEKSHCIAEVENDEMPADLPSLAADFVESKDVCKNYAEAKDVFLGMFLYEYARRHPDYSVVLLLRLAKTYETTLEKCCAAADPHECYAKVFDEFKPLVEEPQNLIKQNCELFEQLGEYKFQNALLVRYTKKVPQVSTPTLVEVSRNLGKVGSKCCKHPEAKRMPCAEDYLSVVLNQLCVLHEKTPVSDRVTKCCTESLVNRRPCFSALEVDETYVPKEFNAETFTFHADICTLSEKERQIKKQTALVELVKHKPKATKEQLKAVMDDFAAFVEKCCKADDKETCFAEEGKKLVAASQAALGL
procedure_summary: Binding affinity to human serum albumin by fluorescence quenching assay
Format: ADME
protocol_conditions: isolated protein
Criterion: Ka strictly less than 2 ×10⁴ L/mol. Met: 1 (yes). Not met: 0 (no).

Look over these answered cases.
{"compound": "Cc1cc2c(c(O)c1-c1c(C)cc3c(c1O)/C(=C/NCCCCC(=O)[O-])C(=O)C(O)=C3C(C)C)/C(=C/NCCCCC(=O)[O-])C(=O)C(O)=C2C(C)C.[Na+].[Na+]", "label_class": "0 (no)"}
{"compound": "Cc1cc2c(c(O)c1-c1c(C)cc3c(c1O)/C(=C/N[C@@H](CC(C)C)C(=O)[O-])C(=O)C(O)=C3C(C)C)/C(=C/N[C@@H](CC(C)C)C(=O)[O-])C(=O)C(O)=C2C(C)C.[Na+].[Na+]", "label_class": "1 (yes)"}
{"compound": "Cc1cc2c(c(O)c1-c1c(C)cc3c(c1O)/C(=C/NCC(=O)[O-])C(=O)C(O)=C3C(C)C)/C(=C/NCC(=O)[O-])C(=O)C(O)=C2C(C)C.[Na+].[Na+]", "label_class": "1 (yes)"}

Query block: Item `Cc1cc2c(c(O)c1-c1c(C)cc3c(c1O)/C(=C/N[C@@H](Cc1ccc(O)cc1)C(=O)[O-])C(=O)C(O)=C3C(C)C)/C(=C/N[C@@H](Cc1ccc(O)cc1)C(=O)[O-])C(=O)C(O)=C2C(C)C.[Na+].[Na+]` : Ka beneath 2 ×10⁴ L/mol, strictly?
Result block: 0 (no)

Query block: What do we get for Cc1cc2c(c(O)c1-c1c(C)cc3c(c1O)/C(=C/NC(C(=O)[O-])c1ccc(Cl)cc1)C(=O)C(O)=C3C(C)C)/C(=C/NC(C(=O)[O-])c1ccc(Cl)cc1)C(=O)C(O)=C2C(C)C.[Na+].[Na+] (stereo not given) ?
Result block: 1 (yes)

Query block: What do we get for COC(=O)C(N/C=C1\C(=O)C(O)=C(C(C)C)c2cc(C)c(-c3c(C)cc4c(c3O)/C(=C/NC(C(=O)OC)c3ccccc3)C(=O)C(O)=C4C(C)C)c(O)c21)c1ccccc1 (stereo not given) ?
Result block: 0 (no)

Query block: What do we get for `COC(=O)[C@H](C)N/C=C1\C(=O)C(O)=C(C(C)C)c2cc(C)c(-c3c(C)cc4c(c3O)/C(=C/N[C@@H](C)C(=O)OC)C(=O)C(O)=C4C(C)C)c(O)c21` ?
Result block: 1 (yes)

Query block: What do we get for `Cc1cc2c(c(O)c1-c1c(C)cc3c(c1O)/C(=C/N[C@@H](CO)C(=O)[O-])C(=O)C(O)=C3C(C)C)/C(=C/N[C@@H](CO)C(=O)[O-])C(=O)C(O)=C2C(C)C.[Na+].[Na+]` ?
Result block: 0 (no)

Query block: What do we get for `Cc1cc2c(c(O)c1-c1c(C)cc3c(c1O)/C(=C/N[C@@H](Cc1c[nH]cn1)C(=O)[O-])C(=O)C(O)=C3C(C)C)/C(=C/N[C@@H](Cc1c[nH]cn1)C(=O)[O-])C(=O)C(O)=C2C(C)C.[Na+].[Na+]` ?
Result block: 0 (no)

Query block: What do we get for `CC[C@H](C)[C@H](N/C=C1\C(=O)C(O)=C(C(C)C)c2cc(C)c(-c3c(C)cc4c(c3O)/C(=C/N[C@H](C(=O)[O-])[C@@H](C)CC)C(=O)C(O)=C4C(C)C)c(O)c21)C(=O)[O-].[Na+].[Na+]` ?
Result block: 0 (no)

* * *

Collected log10 IC50 values appear next to each entry.
Tested on: Influenza A virus
procedure_summary: Antiviral activity against Influenza A virus (A/Vietnam/1194/2004(H5N1)) infected in MDCK cells assessed as inhibition of viral replication by plaque reduction assay
Type: functional, organism-based
Kindly note that the scale is log10 and the underlying IC50 is in nM.

The examples below pair each entry with its known result.
{"compound": "Cc1cc2c(c(O)c1-c1c(C)cc3c(c1O)/C(=C/NC(C)(C)C(=O)[O-])C(=O)C(O)=C3C(C)C)/C(=C/NC(C)(C)C(=O)[O-])C(=O)C(O)=C2C(C)C.[Na+].[Na+]", "observed_value": 3.02}
{"compound": "COC(=O)[C@H](Cc1c[nH]c2ccccc12)N/C=C1\\C(=O)C(O)=C(C(C)C)c2cc(C)c(-c3c(C)cc4c(c3O)/C(=C/N[C@@H](Cc3c[nH]c5ccccc35)C(=O)OC)C(=O)C(O)=C4C(C)C)c(O)c21", "observed_value": 3.86}
{"compound": "CC(=O)N[C@H]1[C@H]([C@H](O)[C@H](O)CO)OC(C(=O)O)=C[C@@H]1NC(=N)N [ZANAMIVIR]", "observed_value": 2.08}
{"compound": "Cc1cc2c(c(O)c1-c1c(C)cc3c(c1O)/C(=C/N[C@H](C(=O)[O-])C(C)C)C(=O)C(O)=C3C(C)C)/C(=C/N[C@H](C(=O)[O-])C(C)C)C(=O)C(O)=C2C(C)C.[Na+].[Na+]", "observed_value": 3.25}

Query block: Which log10 IC50 reading was recorded for the compound Cc1cc2c(c(O)c1-c1c(C)cc3c(c1O)/C(=C/NC(C(=O)[O-])c1ccc(Cl)cc1)C(=O)C(O)=C3C(C)C)/C(=C/NC(C(=O)[O-])c1ccc(Cl)cc1)C(=O)C(O)=C2C(C)C.[Na+].[Na+] (stereo not given) ?
Result block: 4.33

* * *

procedure_summary: Selectivity index, ratio of CC50 for human TZM-bl cells to IC50 for HIV1 3B
Assay type: functional
Collected Ratio CC50/IC50 values appear next to each entry.
Lab note: record the figure alone, no unit after it.

The examples below pair each entry with its known result.
{"compound": "CC[C@H](C)[C@H](N/C=C1\\C(=O)C(O)=C(C(C)C)c2cc(C)c(-c3c(C)cc4c(c3O)/C(=C/N[C@H](C(=O)[O-])[C@@H](C)CC)C(=O)C(O)=C4C(C)C)c(O)c21)C(=O)[O-].[Na+].[Na+]", "Ratio CC50/IC50": 57.57}
{"compound": "Cc1cc2c(c(O)c1-c1c(C)cc3c(c1O)/C(=C/NCCS(=O)(=O)[O-])C(=O)C(O)=C3C(C)C)/C(=C/NCCS(=O)(=O)[O-])C(=O)C(O)=C2C(C)C.[Na+].[Na+] [MEGOSIN]", "Ratio CC50/IC50": 43.03}
{"compound": "Cc1cc2c(c(O)c1-c1c(C)cc3c(c1O)/C(=C/NC(C(=O)[O-])c1ccc(Cl)cc1)C(=O)C(O)=C3C(C)C)/C(=C/NC(C(=O)[O-])c1ccc(Cl)cc1)C(=O)C(O)=C2C(C)C.[Na+].[Na+] (stereo not given)", "Ratio CC50/IC50": 17.12}
{"compound": "Cc1cc2c(c(O)c1-c1c(C)cc3c(c1O)/C(=C/N[C@@H](CS)C(=O)[O-])C(=O)C(O)=C3C(C)C)/C(=C/N[C@@H](CS)C(=O)[O-])C(=O)C(O)=C2C(C)C.[Na+].[Na+]", "Ratio CC50/IC50": 4.42}

Below: the item to evaluate.
Query block: Which Ratio CC50/IC50 reading was recorded for the compound `Cc1cc2c(c(O)c1-c1c(C)cc3c(c1O)/C(=C/NCCCCC(=O)[O-])C(=O)C(O)=C3C(C)C)/C(=C/NCCCCC(=O)[O-])C(=O)C(O)=C2C(C)C.[Na+].[Na+]` ?
Result block: 19.25

* * *

Test system: Influenza A virus
procedure_summary: Antiviral activity against Influenza A virus (A/Vietnam/1194/2004(H5N1)) infected in MDCK cells assessed as inhibition of viral replication by plaque reduction assay
Assay type: functional, organism-based
Collected pIC50 values appear next to each entry.
Please treat pIC50 as minus the base-10 logarithm of the molar concentration.

The examples below pair each entry with its known result.
{"compound": "Cc1cc2c(c(O)c1-c1c(C)cc3c(c1O)/C(=C/NCC(=O)[O-])C(=O)C(O)=C3C(C)C)/C(=C/NCC(=O)[O-])C(=O)C(O)=C2C(C)C.[Na+].[Na+]", "metric": "pIC50", "observed_value": 5.01}
{"compound": "Cc1cc2c(c(O)c1-c1c(C)cc3c(c1O)/C(=C/N[C@@H](CC(C)C)C(=O)[O-])C(=O)C(O)=C3C(C)C)/C(=C/N[C@@H](CC(C)C)C(=O)[O-])C(=O)C(O)=C2C(C)C.[Na+].[Na+]", "metric": "pIC50", "observed_value": 5.07}

Query block: Which pIC50 reading was recorded for the compound `CCOC(=O)CN/C=C1\C(=O)C(O)=C(C(C)C)c2cc(C)c(-c3c(C)cc4c(c3O)/C(=C/NCC(=O)OCC)C(=O)C(O)=C4C(C)C)c(O)c21` ?
Result block: 5.01

Query block: What do we get for `Cc1cc2c(c(O)c1-c1c(C)cc3c(c1O)/C(=C/N[C@H](C(=O)[O-])c1ccccc1)C(=O)C(O)=C3C(C)C)/C(=C/N[C@H](C(=O)[O-])c1ccccc1)C(=O)C(O)=C2C(C)C.[Na+].[Na+]` ?
Result block: 5.09

Query block: What do we get for `Cc1cc2c(c(O)c1-c1c(C)cc3c(c1O)/C(=C/NCCS(=O)(=O)[O-])C(=O)C(O)=C3C(C)C)/C(=C/NCCS(=O)(=O)[O-])C(=O)C(O)=C2C(C)C.[Na+].[Na+]` ?
Result block: 5.07

Query block: What do we get for Cc1cc2c(c(O)c1-c1c(C)cc3c(c1O)/C(=C/NC(C(=O)[O-])c1ccc(O)cc1)C(=O)C(O)=C3C(C)C)/C(=C/NC(C(=O)[O-])c1ccc(O)cc1)C(=O)C(O)=C2C(C)C.[Na+].[Na+] (centres undefined) ?
Result block: 5.11

Query block: What do we get for `COC(=O)[C@H](CC(C)C)N/C=C1\C(=O)C(O)=C(C(C)C)c2cc(C)c(-c3c(C)cc4c(c3O)/C(=C/N[C@@H](CC(C)C)C(=O)OC)C(=O)C(O)=C4C(C)C)c(O)c21` ?
Result block: 5.06

Query block: What do we get for `Cc1cc2c(C(C)C)c(O)c(O)c(/C=N/[C@@H](Cc3ccccc3)C(=O)[O-])c2c(O)c1-c1c(C)cc2c(C(C)C)c(O)c(O)c(/C=N/[C@@H](Cc3ccccc3)C(=O)[O-])c2c1O.[Na+].[Na+]` ?
Result block: 5.11

Query block: What do we get for COC(=O)C(N/C=C1\C(=O)C(O)=C(C(C)C)c2cc(C)c(-c3c(C)cc4c(c3O)/C(=C/NC(C(=O)OC)c3ccccc3)C(=O)C(O)=C4C(C)C)c(O)c21)c1ccccc1 (centres undefined) ?
Result block: 5.09
